Would you mind telling me the reported apparent KD of K4 kissing-loop reporter of each entry?
Test system: K4 kissing-loop RNA reporter;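 further: bound reporter read as fluorescence of individual clusters on recovered sequencing chips by microscopy, with normalized cluster intensities fitted with a binding model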
Assay: apparent KD of K4 kissing-loop reporter; higher = weaker reporter binding
Conditions: Eterna round: R107; input ligand: arginine 13.2 mM
Give bare numbers, in µM.

Need apparent KD of K4 kissing-loop reporter, item AUUAAUUUCAGAGGAUAUGCUUAAUUGAUUAAAUAUAAUCUAUUAUGCAGUGAUGUUGCAUUUUUUGCAGAAGGCUGAUUUAUAA [JR_SSFMNB_Sub017]
0.5

Need apparent KD of K4 kissing-loop reporter, item ACACAGAGUUGCCGAGUGAUGUUCGGCUUACGAGGACCGGUACGGCCGCCACUCGUUACUCUGUGUUUUGGACACCAAGGCGUAG [Edvemaquan]
0.492

Each sequence below has a recorded value; state its apparent KD of K4 kissing-loop reporter.
1. AGUUUAGAGUGACUCGAUAAGAGUCACAAACGAGGACCGGUACGGCCGCCACUCGAAAUAACGAGAGUGAUGUUCUCGCUGGGUA [FiskerMod 4 - Jieux - Same State Tryptophan A]
2. GCCCGGUGAAUCCGCCAAGAUAGACACCGUCGAGGACCGGUACGGCCGCCACUCGAGUACGAGUGAUGUUCGUACGCGGUGUCGA [Onedzate]
3. AGGAUCACGUCAGUGAUGUUGACAAGAGAUACCAGAGACGAAAGUCUCCCUUGGCAGCUCAUUGUGAUCCGUGACAAAGGUCACA [Omei KL hio A SS C v2]
4. AGUGAACGAGCGGCCGCCACUAAAUGAGUGAUGUUCGUGAGUAGUGCUGUUCUCAUGAUUGUUUUUAGGACCGGGUUCGAUGUUG [edcclmullin]

0.33
0.728
0.293
0.739

* * *

Would you mind telling me the reported apparent KD of MS2 coat protein of each entry?
Test system: MS2 coat protein
Assay: apparent KD of MS2 coat protein; higher = weaker reporter binding
Conditions: Eterna round: R107; input ligand: tryptophan 2.4 mM
Give bare numbers, in nM.

Please review the entries below; each comes with its answer.
Need apparent KD of MS2 coat protein, item UACAUGAGGAUCACCCAUGUAUGAAGGGAUACCAGCGACAGUAAGCGCCCUUGGCAGCCCGUGAAUAAAGGGUGGGUAAAAUAGU [Exclusion Theophyline A GF 3]
16.1

Need apparent KD of MS2 coat protein, item ACGAUAGGACACGAGGAUCACCCGUGUGAUACCAGCCUGGAAACAGGCCCUUGGCAGCACAAAUACUCCAAUAACCUAUCGAAUA [TheoAX 10 #MicroSwitchBubble #AlternativeMS2]
106

Need apparent KD of MS2 coat protein, item AAAUCAGUCUGAAGGAGCGUCACAUGAGGAUCACCCAUGUACAUGAGGAUCACCCAUGUGUGACAGGUAGGUCGCAGAGGAUACC [Exclusion Arginine B GF 4]
213

Need apparent KD of MS2 coat protein, item ACCUGUACGAAAAGUGCAGGACACGGAUAACGAGGACCGGUACGGCCGCCACUCGGAAUAACCUGAGGAUCACCCUGGUACCGUG [TrypAS 8 #AlternativeMS2 #Zipper #StaticStem]
19

Need apparent KD of MS2 coat protein, item AGCGACAUGCAUGAUACCAGCUACAUGAGGAUCACCCAUGUACGUCAGUAAUGACUGUGUAGCCCUUGGCAGCAUAGAGCAUGUU [Exclusion - Theophylline B (Freestyle 15)]
16.5

Need apparent KD of MS2 coat protein, item UAUCCACAUGAGGAUCACCCAUGUUAGGAAGGAGCGGUGAAUGAACCAGGUAGGUCGCCUAGCUGAGGACCAUCAAUGGAUUCGU [Exclusion - Arginine A (Freestyle 14)]
38.1

Need apparent KD of MS2 coat protein, item GCUAGUGGCAGAAGGAGCGAGGCCCGCGCACAUAACAUGAGGAUCACCCAUGUGGCGAGACCUCAGGUAGGUCGCUGCCACUAGC [EAB NP+V2 #1]
12.4

Need apparent KD of MS2 coat protein, item AAGGUGAUCCGUGAUACCAGCUCAACAUGAGGAUCACCCAUGUAACGGACGAAAGUCCGGAGCCCUUGGCAGCACGGUUGCCAAG [(M)'-(Theo1)-(Ms2)-(Theo2)-(M'')-(T2)'_Design1b]
83.8

Each sequence below has a recorded value; state its apparent KD of MS2 coat protein.
1. GAGGGUGAAUCUCUAGUCCGUUUGACGGAUACCAGCGAGAGGUAUCGCCCUUGGCAGCCGACGACAUGAGGAUCACCCAUGUUAA [#07 Exclusion-TheophyllineA]
2. ACAUGAGGAUCACCCAUGUGCAGAACGGAUACCAGCGUGCUGGUACGCCCUUGGCAGCCGGACAUGAGGAUCACCCAUGUGUGGA [Exclusion Theophylline A GF28]
3. AAACUGGGUGUAAAAUAAAUAAUCACUGAUACCAGACUAUUUUAUGUCCCUUGGCAGCAGAAACAUGAGGAUCACCCAUGUAAUA [JR_Nu_ExcTheophyA_Sub025]
4. GCACAACAUGAGGAUCACCCAUGUCGAGAUACCAGAACAUAUAUAUUCCCUUGGCAGCUCACACCUUUAAUGUAAAAUUCUUUGG [theeternabot_sameState_MS2_Theo_A_47]
5. AUAUUAGACCUGGAUACCAGCGACAUGAGGAUCACCCAUGUAUGUGCAUCUGCCAUGAUAUGCCCUUGGCAGCCACCGAGGUCGU [CZZMULLIN]
6. UUUUAAGGGAUCGGAGCUGGUAGCAGAGAUACCAGAGUAGUAAUGCUCCCUUGGCAGCUCAGUACAUGAGGAUCACCCAUGUUUU [Exclusion Theophylline A GF26]

29.3
66
26.7
13.9
10.8
17.9

Each sequence below has a recorded value; state its apparent KD of MS2 coat protein.
1. AGCGACAUGCGUGAUACCAGCUACAUGAGGAUCACCCAUGUACGUCAGAAAUGACUGUGUAGCCCUUGGCAGCAUAGUGCAUGUC [Exclusion - Theophylline B (Freestyle 20)]
2. AAGCGCACAUGAGGAUCACCCAUGUGCGGCCGAGGACCGGUACGGCCGCCACUCGGAACUAGAAAUAGGAACGGGUAGUGCGCAA [TryptophanA Sol_1]
3. ACAUUUAACUGAAGGAGCGUGAUAUGUACAUGAGGAUCACCCAUGUCUUUCAUGUGAUUUUCACAGGUAGGUCGCAGACUAAUGA [JR_ExcArginiB_Sub003]
4. GAUUGGAUUUGAAGGAGCGUCGAAAAUGGGUAAACAUGAGGAUCACCCAUGUAAAGGGAACGACAGGUAGGUCGCAAAUUUAAUC [AstromonsSSArgB#31]
5. AAGAUACUCUGAAGGAGCGGCAUAAAACAUGAGGAUCACCCAUGUGCGCGGGUGUAAUUAUGCCAGGUAGGUCGCAGAGUAUUUA [#03 Same State - Arginine B]
6. CCUGCGUUUCUUUUCUUUCGCAGGAAUGAUACCAGUAGGGAAACCUACCCUUGGCAGCAUGGGUAACAUGAGGAUCACCCAUGUU [SSThA NP+V+V2 #5 Same Structure]

1: 34.8; 2: 10.9; 3: 11.6; 4: 162; 5: 412; 6: 343

Each sequence below has a recorded value; state its apparent KD of MS2 coat protein.
1. UAUACAUGAGGAUCACCCAUGUGCCAUGAUACCAGACAUGAAAAUGUCCCUUGGCAGCAUGGGAGAUGUAUAGCGGGAAACCCGA [Turany]
2. GUUUUAUCAAAAGAUGAAACAGUGGGUGAACGAGGACCGGUACGGCCGCCACUCGGACAUGAGGAUCACCCAUGUCCAUGUGAAA [AstrosExyTryA#13]

42.6
54.1

* * *

System: MS2 coat protein
Test: apparent KD of MS2 coat protein; designed switch direction (-1 OFF switch, 1 ON switch): -1; higher = weaker reporter binding
Details: input ligand: FMN 200 uM
Would you mind telling me the reported apparent KD of MS2 coat protein of each entry?
Numbers only, in nM.

Please review the entries below; each comes with its answer.
Any idea what apparent KD of MS2 coat protein came out for GGGCGCUUAGGAUAUACAUGAGGAUCACCCAUGUGGCUCUCCACGUUGCAUAACAUUCGUAGAAGGAAGCGCAU [Eternabot (L1) Solution 69] (Eterna round: R97, puzzle: Exclusion 3) on MS2 coat protein?
252

Any idea what apparent KD of MS2 coat protein came out for AAGAGGAUCGGAGGAUAUGGAGCUGAAACGGCGCUAGAAGGCCGUCCAGUGUAACAUGAGGAUCACCCAUGUAGGGACCUCUAA [EX ng 1 4.1] (Eterna round: R96, puzzle: Exclusion NG 1) on MS2 coat protein?
314

More entries:
Any idea what apparent KD of MS2 coat protein came out for CUGCUGGAGCUUUGCUUUGGUCGUACAUGAGGAUCACCCAUGUAGGAUAUGGUAAAAUUUGCUUGCUAGAAGGAUAGAGUGGUC [salish99_ExNG3_r04_612] (Eterna round: R96, puzzle: Exclusion NG 3) on MS2 coat protein?
88.1
